Test system: KYSE-70 cell line
ASSAY_DETAILS: Antiproliferative activity against human KYSE-70 cells assessed as inhibition of cell growth incubated for 48 hrs by MTT assay
Type: functional, cell-based
COND: KYSE-70, 48 h
MEASURED_ENDPOINT: pIC50
// pIC50 is dimensionless: -log10 of concentration (M)

query: Value lookup for pIC50; key = COc1ccc(-c2cnoc2-c2cc(C)nc3ccccc23)cc1
result: 8.11

* * *

Tested on: MGC-803
ASSAY_DETAILS: Antiproliferative activity against human MGC-803 cells assessed as inhibition of cell proliferation incubated for 48 hrs by MTT assay
Type: functional, cell-based
COND: MGC-803, 48 h
pIC50: −log10 of the molar value.
Collected pIC50 values appear next to each entry.

query: Value lookup for pIC50; key = COc1cccc(-c2[nH]nnc2-c2ccnc3ccccc23)c1
result: < 5.00

query: Value lookup for pIC50; key = COc1ccc(-c2cn[nH]c2-c2cc(C)nc3ccccc23)cc1
result: 7.41

query: Value lookup for pIC50; key = COc1ccccc1-c1cn[nH]c1-c1cc(C)nc2ccccc12
result: < 6.10
